What l2FC_IPTG_15 was measured for each of the following?
System: E. coli W3110
protocolDetails: Surface-localized antimicrobial display (SLAY), log2 fold change in reads
Assay type: cell-based, Escherichia coli
conditionSet: induced (15 μM IPTG, low induction) vs uninduced, 3 h 37°C
Bridge positions count the residues as written; N and C are the ends. Ends that are not written are not given here.

Lab note: CRIKINIDDRGGTVKLEVQC (disulfide 1-20 (inferred)) gave l2FC_IPTG_15 of -0.180

Lab note: CVTIRVDNGGGGLRITLQVC (disulfide 1-20 (inferred)) gave l2FC_IPTG_15 of -0.299

Lab note: CRIKIDVDDGRRRVRLELQC (disulfide 1-20 (inferred)) gave l2FC_IPTG_15 of 0.041

Lab note: CLRIRVDDRRRRVRITLQVC (disulfide 1-20 (inferred)) gave l2FC_IPTG_15 of 0.055

Lab note: CLRIRVNDRRRGVKITLEVC (disulfide 1-20 (inferred)) gave l2FC_IPTG_15 of 0.457

The measured values listed here are drawn from paper PMC9833666.
